- TARGET SYSTEM: UniProt:P03372
- TEST: Degradation of ERα in MCF-7 cells (immunoblotting, 4 h)
- Assay type: cell-based
- CONDITION DETAILS: 1nM compound
- Description: MCF-7 cells were inoculated into 6-well plates at a density of 3×10^5 cells/well and cultured at 37°C, 5% CO2 for 24h. […] Protein immunoblotting: The total protein concentration in the collected cell lysate supernatant was determined by BCA Protein Concentration Assay Kit (Enhanced) (P0009, Beyotime). […] Protein profiles were analyzed by Image Studio Lite analysis software for grayscale values. […]
METRIC NAME: Degradation rate (%) of ERα in MCF-7 cells
Answers are plain numbers, in %.

Hi there! I need Degradation rate (%) of ERα in MCF-7 cells for each item below, if you can.
1. O=C1CCC(N2Cc3c(ccc4c3OCC43CCN(C4CCN(C5CCN(c6ccc([C@@H]7c8ccc(O)cc8CC[C@@H]7c7ccccc7)cc6)CC5)CC4)CC3)C2=O)C(=O)N1 (some centres unmarked)
2. O=C1CCC(N2Cc3cc4c(cc3C2=O)OCC2(CCN(CC3CCC5(CC3)CCN(c3ccc([C@@H]6c7ccc(O)cc7CC[C@@H]6c6ccccc6)cc3)CC5)CC2)O4)C(=O)N1 (some centres unmarked)
3. C[C@@H]1Cc2c(ccc3[nH]ncc23)[C@@H](c2c(F)cc(N3CCN(C[C@H]4CC[C@H](C(=O)N5CCC6(CC5)COc5c6ccc6c5CN(C5CCC(=O)NC5=O)C6=O)CC4)CC3)cc2F)N1CC(F)F (some centres unmarked)
4. CC1(CN2CCC3(CC2)COc2c3ccc3c2CN(C2CCC(=O)NC2=O)C3=O)CCN(CC2CCN(c3ccc([C@@H]4c5ccc(O)cc5CC[C@@H]4c4ccccc4)cc3)CC2)CC1 (some centres unmarked)
5. O=C1CCC(N2Cc3c(ccc4c3OCC43CCN(C4CCN(C(=O)C5CCN(c6ccc(C7c8ccc(O)cc8CCC7c7ccccc7)cc6)CC5)CC4F)CC3)C2=O)C(=O)N1 (centres unmarked)
6. O=C1CCC(N2C(=O)c3cc4c(cc3C2=O)OC2(CC4)CN(CC3CCC4(CC3)CCN(c3ccc([C@@H]5c6ccc(O)cc6CC[C@@H]5c5ccccc5)cc3)CC4)C2)C(=O)N1 (some centres unmarked)
7. CN(C(=O)CN1CCC2(CC1)COc1cc3c(cc12)CN(C1CCC(=O)NC1=O)C3=O)C1CCC2(CC1)CN(c1ccc([C@@H]3c4ccc(O)cc4CC[C@@H]3c3ccccc3)cc1)C2 (some centres unmarked)

40
-16
-34
11
24
-9
-5

Batch of 4 compounds: report Degradation rate (%) of ERα in MCF-7 cells for each.
1. CN(C)C(=O)[C@H]1CC(N2CCC3(CC2)COc2c3ccc3c2CN(C2CCC(=O)NC2=O)C3=O)CCN1C1CC2(CCN(c3ccc([C@@H]4c5ccc(O)cc5CC[C@@H]4c4ccccc4)cc3)CC2)C1 (some centres unmarked)
2. O=C1CCC(N2Cc3cc4c(cc3C2=O)OC2(CC4)CN(C3CC4(CCC5(CCN(c6ccc([C@@H]7c8ccc(O)cc8CC[C@@H]7c7ccccc7)cc6)CC5)CC4)C3)C2)C(=O)N1 (some centres unmarked)
3. O=C1CCC(N2Cc3c(ccc4c3OCC43CCN(C4CC5(CCC6(CC5)CN(c5ccc([C@@H]7c8ccc(O)cc8CC[C@@H]7c7ccccc7)cc5)C6)C4)CC3)C2=O)C(=O)N1 (some centres unmarked)
4. O=C1CCC(N2Cc3c(ccc4c3OCC43CCN(C4CCN(C(=O)c5ccc([C@@H]6c7ccc(O)cc7CC[C@@H]6c6ccccc6)cc5)CC4)CC3)C2=O)C(=O)N1 (some centres unmarked)

1. 66
2. -7
3. -39
4. -39

----------
Can you tell me Degradation rate (%) of ERα in T-47D cells for the items I'm about to list?
- TARGET SYSTEM: ERα (Homo sapiens, UniProt P03372)
- Sequence (P03372 1-595): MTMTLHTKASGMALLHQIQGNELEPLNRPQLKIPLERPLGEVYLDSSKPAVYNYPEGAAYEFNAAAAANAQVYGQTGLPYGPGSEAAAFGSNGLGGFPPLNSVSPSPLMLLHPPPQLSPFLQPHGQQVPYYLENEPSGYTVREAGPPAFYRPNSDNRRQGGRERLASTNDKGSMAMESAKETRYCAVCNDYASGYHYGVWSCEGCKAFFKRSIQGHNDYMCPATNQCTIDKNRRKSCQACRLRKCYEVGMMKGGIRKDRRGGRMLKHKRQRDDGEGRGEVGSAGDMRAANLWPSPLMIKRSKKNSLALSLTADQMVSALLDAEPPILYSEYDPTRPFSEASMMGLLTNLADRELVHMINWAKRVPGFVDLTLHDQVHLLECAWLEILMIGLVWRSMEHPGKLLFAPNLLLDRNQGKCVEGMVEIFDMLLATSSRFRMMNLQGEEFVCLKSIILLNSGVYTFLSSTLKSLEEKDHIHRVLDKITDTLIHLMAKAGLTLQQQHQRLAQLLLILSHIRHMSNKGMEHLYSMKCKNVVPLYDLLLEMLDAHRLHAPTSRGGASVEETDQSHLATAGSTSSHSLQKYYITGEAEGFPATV
- TEST: Degradation of ERα in T-47D cells (immunoblotting, 4 h)
- Assay type: cell-based
- Design: host or cells: T-47D
- CONDITION DETAILS: 1nM compound

Could you tell me Degradation rate (%) of ERα in T-47D cells for each of these compounds? They are listed below.
1. O=C1CCC(N2Cc3cc4c(cc3C2=O)OC2(CC4)CN(CC3CCC4(CC3)CCN(c3ccc([C@@H]5c6ccc(O)cc6CC[C@@H]5c5ccccc5)cc3)CC4)C2)C(=O)N1 (some centres unmarked)
2. O=C1CCC(N2Cc3c(ccc4c3OCC43CCN(C4CCC5(CC4)CCN(c4ccc([C@@H]6c7ccc(O)cc7CC[C@@H]6c6ccccc6)cc4)CC5)CC3)C2=O)C(=O)N1 (some centres unmarked)

15%
23%

Give me Degradation rate (%) of ERα in T-47D cells for each of these compounds, listed below.
1. O=C1CCC(N2Cc3ccc4c(c3C2=O)OCC42CCN(C3CCN(C(=O)C4(F)CCN(c5ccc([C@@H]6c7ccc(O)cc7CC[C@@H]6c6ccccc6)cc5)CC4)CC3F)CC2)C(=O)N1 (some centres unmarked)
2. C[C@@H]1Cc2c(ccc3[nH]ncc23)C(c2c(F)cc(N3CCC4(CCC(N5CCC6(CC5)COc5c6ccc6c5CN(C5CCC(=O)NC5=O)C6=O)CC4)CC3)cc2F)N1CC(F)F (some centres unmarked)
3. O=C1CCC(N2Cc3cc4c(cc3C2=O)CCC2(CN(C(=O)CN3CCC5(CC3)CCN(c3ccc([C@@H]6c7ccc(O)cc7CC[C@@H]6c6ccccc6)cc3)CC5)C2)O4)C(=O)N1 (some centres unmarked)

26%
51%
19%

----------
- TARGET SYSTEM: UniProt:P03372
- Sequence (P03372 1-595): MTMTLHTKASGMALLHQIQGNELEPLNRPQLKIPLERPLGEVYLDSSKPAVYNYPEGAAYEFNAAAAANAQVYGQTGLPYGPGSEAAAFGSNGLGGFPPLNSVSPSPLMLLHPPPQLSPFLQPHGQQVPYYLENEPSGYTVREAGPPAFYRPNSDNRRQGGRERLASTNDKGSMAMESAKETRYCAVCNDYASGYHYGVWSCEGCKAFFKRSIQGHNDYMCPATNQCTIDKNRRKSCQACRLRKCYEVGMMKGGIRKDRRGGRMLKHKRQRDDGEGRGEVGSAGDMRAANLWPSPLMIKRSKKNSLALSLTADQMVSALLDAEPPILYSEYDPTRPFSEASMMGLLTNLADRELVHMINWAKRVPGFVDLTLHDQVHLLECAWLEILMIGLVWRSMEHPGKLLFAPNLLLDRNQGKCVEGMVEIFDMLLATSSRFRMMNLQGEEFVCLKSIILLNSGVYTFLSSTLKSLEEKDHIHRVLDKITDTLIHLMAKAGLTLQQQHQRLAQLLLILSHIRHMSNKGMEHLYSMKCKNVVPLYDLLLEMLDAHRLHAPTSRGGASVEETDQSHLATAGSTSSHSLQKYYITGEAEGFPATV
- TEST: Degradation of ERα in T-47D cells (immunoblotting, 4 h)
- Assay type: cell-based
- Parameters: host or cells: T-47D
- CONDITION DETAILS: 10nM compound
- Experimental: T-47D cells were inoculated into 6-well plates at a density of 3×10^5 cells/well and cultured at 37°C, 5% CO2 for 24 h. After the cells were attached to the wall, 1µL of the compound solution in dimethyl sulfoxide (final concentration 0.15-1000 nM) was added and continued to be cultured in the incubator with 5% CO2 at 37°C for 4 h. […]
METRIC NAME: Degradation rate (%) of ERα in T-47D cells
Answers are plain numbers, in %.

| COMPOUND | TARGET SYSTEM | TEST VALUE |
| --- | --- | --- |
| O=C1CCC(N2C(=O)c3ccc4c(c3C2=O)OCC42CCN(C3CCC4(CC3)CCN(c3ccc([C@@H]5c6ccc(O)cc6CC[C@@H]5c5ccccc5)cc3)CC4)CC2)C(=O)N1 (stereo partly drawn) | UniProt:P03372 | 44 |
| O=C1CCC(N2Cc3cc4c(cc3C2=O)CCC2(CN(C(=O)CN3CCC5(CC3)CCN(c3ccc([C@@H]6c7ccc(O)cc7CC[C@@H]6c6ccccc6)cc3)CC5)C2)O4)C(=O)N1 (stereo partly drawn) | UniProt:P03372 | 67 |

Next, consider the following compound.
Return Degradation rate (%) of ERα in T-47D cells measured with UniProt:P03372 given this compound: O=C1CCC(N2Cc3c(ccc4c3OC3(CC4)CCN(C4CCN(C(=O)C5CCN(c6ccc([C@@H]7c8ccc(O)cc8CC[C@@H]7c7ccccc7)cc6)CC5)CC4)CC3)C2=O)C(=O)N1 (stereo partly drawn)
72

Just for reference, patent EP4656642A1 is where these values come from.
